The origin of these recorded values is paper PMC6447882.

assay: in vivo; details: mouse, plasma, iv, 70 mg/kg, mice, two-compartmental model, n = 3, read-out: T1/2a (distribution half-life, T1/2 α)
PROPERTY LABEL: half-life (min)

• CN(Cc1cnc2nc(N)nc(N)c2n1)c1ccc(C(=O)N[C@@H](CCC(=O)O)C(=O)O)cc1 [MTX, Methotrexate] = 2.45

====

assay: in vivo; settings: mouse, plasma; mice, iv 70 mg/kg, n = 3; read-out: CLs (systemic clearance)
PROPERTY LABEL: clearance (mL/min)

• CN(Cc1cnc2nc(N)nc(N)c2n1)c1ccc(C(=O)N[C@@H](CCC(=O)O)C(=O)O)cc1 [MTX, Methotrexate] = 22.4

====

assay: in vivo; conditions: mouse, plasma; mice, iv 70 mg/kg, noncompartmental model, n = 3; read-out: MRT (mean residence time) (converted)
PROPERTY LABEL: MRT (min)

• CN(Cc1cnc2nc(N)nc(N)c2n1)c1ccc(C(=O)N[C@@H](CCC(=O)O)C(=O)O)cc1 [MTX, Methotrexate] = 9.3
